The values you see were collected from paper PMC5355811.

Test system: Ba/F3 cells expressing EGFR-T790M/L858R
Experiment: CellTiter-Glo cell viability assay, Ba/F3 EGFR-T790M/L858R
Format: cell-based
Conditions: Mus musculus, BaF3; Table 1b; 72 h; read-out: IC50, Ba/F3-EGFR-T790M/L858R
quantity: pIC50
Just the number, please; pIC50 means minus log10 of the concentration in mol/L.

Query :: Request body: readout pIC50, system Ba/F3 cells expressing EGFR-T790M/L858R, query Cc1cc(C(=O)Nc2nc3cccc(Cl)c3n2[C@@H]2CCCCN(C(=O)/C=C/CN(C)C)C2)ccn1 [EGF-816] . Return the value.
Result :: 7.81

* * *

Tested on: Ba/F3 cells of EGFR-del19
Test: Drug sensitivity screening at 100 nM, Ba/F3 EGFR-del19
Format: cell-based
Conditions: Mus musculus, BaF3, 72 h, read-out: Relative cell viability (ratio to DMSO control), del19
Documented viability at 0.1 µM across a set of compounds
State the answer as a number, implicitly in %.

// worked examples, viability at 0.1 µM included
| compound | viability at 0.1 µM (%) |
| --- | --- |
| C[C@]12O[C@H](C[C@]1(O)CO)n1c3ccccc3c3c4c(c5c6ccccc6n2c5c31)CNC4=O [CEP701] | 2.57 |
| C=CC(=O)Nc1cc(Nc2nccc(-c3cn(C)c4ccccc34)n2)c(OC)cc1N(C)CCN(C)C [Osimertinib, osimertinib] | 1.58 |
| Cc1ccc(C(=O)Nc2ccc(CN3CCN(C)CC3)c(C(F)(F)F)c2)cc1C#Cc1cnc2cccnn12 [Ponatinib, ponatinib] | 40.6 |

Here's the next entry for you.
Query :: Record request: viability at 0.1 µM value, item CS(=O)(=O)CCNCc1ccc(-c2ccc3ncnc(Nc4ccc(OCc5cccc(F)c5)c(Cl)c4)c3c2)o1 [Lapatinib, lapatinib]
Result :: 128

* * *

System: Ba/F3 cells of EGFR-T790M/del19
Experiment: Drug sensitivity screening at 100 nM, Ba/F3 EGFR-T790M/del19
Assay type: cell-based
Details: 100 nM, 72 h, DMSO = 100; experiment 3
quantity: Relative cell viability (% of DMSO control)

Please review the following examples before continuing.
| molecule | result |
| --- | --- |
| Cn1cnc2c(F)c(Nc3ccc(Br)cc3Cl)c(C(=O)NOCCO)cc21 | 110.93 |
| COc1cc2c(Nc3ccc(Br)cc3F)ncnc2cc1OCC1CCN(C)CC1 | 98.1331 |
| CC(=O)O[C@H]1C(=O)[C@@]2(C)[C@H]([C@H](OC(=O)c3ccccc3)[C@]3(O)C[C@H](OC(=O)[C@H](O)[C@@H](NC(=O)c4ccccc4)c4ccccc4)C(C)=C1C3(C)C)[C@]1(OC(C)=O)CO[C@@H]1C[C@@H]2O | 88.6746 |
| COc1cc(N2CCC(N)CC2)ccc1Nc1ncc(Cl)c(-c2c[nH]c3ccccc23)n1 | 89.0461 |
| CC(=O)Nc1cccc(-n2c(=O)n(C3CC3)c(=O)c3c(Nc4ccc(I)cc4F)n(C)c(=O)c(C)c32)c1 | 12.1404 |

Query :: Form field: Relative cell viability (% of DMSO control) recorded for O=C(C(c1ccccc1)c1ccccc1)N1CCN(CC(O)COc2cccc3ncccc23)CC1 (centres unmarked) with Ba/F3 cells of EGFR-T790M/del19 (enter value)
Result :: 98.5141

Query :: Follow-up item: CO[C@H]1C[C@@H]2CC[C@@H](C)[C@@](O)(O2)C(=O)C(=O)N2CCCC[C@H]2C(=O)O[C@H]([C@H](C)C[C@@H]2CC[C@@H](O)[C@H](OC)C2)CC(=O)[C@H](C)/C=C(\C)[C@@H](O)[C@@H](OC)C(=O)[C@H](C)C[C@H](C)/C=C/C=C/C=C/1C
Result :: 31.8573

Query :: Now consider COc1cc2nccc(Oc3ccc(NC(=O)NC4CC4)c(Cl)c3)c2cc1C(N)=O .
Result :: 117.831
